Where do these numbers come from? They come from patent US20080176862A1.

# TARGET OR TEST SYSTEM: human β-Secretase (soluble part, AA1-AA460; sBACE-Fc) (Homo sapiens)
# Construct: The soluble part of the human β-Secretase (AA1-AA460) was cloned into the ASP2-Fc10-1-IRES-GFP-neoK mammalian expression vector; made in house
# ASSAY COMMENT: TR-FRET assay
# Format: biochemical
# APPLIED CONDITIONS: substrate (Europium)CEVNLDAEFK(Qsy7) 100 nM, pH 4.5, 15 min at RT; read-out: IC50 (nM) in TR-FRET assay
Where a name gives a salt, the structure may show the parent alone.
OUTCOME MEASURE: IC50 (nM)

Answered cases to consult:
MOLECULE	ASSAY VALUE
CCCS(=O)(=O)Oc1cccc(C2(c3ccc(F)c(-c4cncc(OC)c4)c3)N=C(N)N(C)C2=O)c1 (stereo not shown) [Example 130, hydrochloride]	59
CCC(C)(C)c1ccc(S(=O)(=O)Oc2cccc(C3(c4ccc(F)c(-c5cncnc5)c4)N=C(N)N(C)C3=O)c2)cc1 (stereo not shown)	82

(1) COc1cc(OS(C)(=O)=O)cc(-c2cc(C3(C4CCOCC4)N=C(N)N(C)C3=O)ccc2F)c1 (stereo not shown) [Example 192, methanesulfonate hydrochloride]
(2) CN1C(=O)C(c2ccc(OS(C)(=O)=O)cc2)(c2ccc(F)c(/C=C/C3CC3)c2)N=C1N (stereo not shown)
(3) CN1C(=O)C(c2ccc(OS(=O)(=O)C(F)(F)F)cc2)(c2ccc(F)c(-c3cnccn3)c2)N=C1N (stereo not shown)
(4) COc1ccc(S(=O)(=O)Oc2ccc(C3(c4ccc(F)c(-c5cncnc5)c4)N=C(N)N(C)C3=O)cc2)cc1 (stereo not shown)
QUERY: Order these by IC50, descending, and give the full ranking. When ranking, write the labels in the order the request describes.
RESULT: 1, 2, 3, 4

====

# TARGET OR TEST SYSTEM: human β-Secretase (soluble part, AA1-AA460; sBACE-Fc) (Homo sapiens, UniProt P56817)
# Construct: The soluble part of the human β-Secretase (AA1-AA460) was cloned into the ASP2-Fc10-1-IRES-GFP-neoK mammalian expression vector; made in house
# Sequence (P56817 22-460): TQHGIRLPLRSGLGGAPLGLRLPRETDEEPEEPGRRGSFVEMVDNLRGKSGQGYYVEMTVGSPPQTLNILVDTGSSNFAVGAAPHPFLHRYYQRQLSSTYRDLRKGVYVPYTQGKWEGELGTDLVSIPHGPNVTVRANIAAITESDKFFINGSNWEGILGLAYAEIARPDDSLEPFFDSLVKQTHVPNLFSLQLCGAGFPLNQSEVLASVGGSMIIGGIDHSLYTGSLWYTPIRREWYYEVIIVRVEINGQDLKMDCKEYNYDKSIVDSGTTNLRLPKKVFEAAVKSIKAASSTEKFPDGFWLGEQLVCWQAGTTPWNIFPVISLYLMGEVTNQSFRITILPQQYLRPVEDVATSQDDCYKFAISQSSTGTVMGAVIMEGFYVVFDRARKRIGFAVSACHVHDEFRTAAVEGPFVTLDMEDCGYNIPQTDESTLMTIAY
# ASSAY COMMENT: TR-FRET assay
# Format: biochemical
# APPLIED CONDITIONS: substrate (Europium)CEVNLDAEFK(Qsy7) 100 nM, pH 4.5, 15 min at RT; read-out: IC50 (nM) in TR-FRET assay
Where a name gives a salt, the structure may show the parent alone.
OUTCOME MEASURE: IC50 (nM)

Answered cases to consult:
>>> df
                                   compound  assay_value
0  COc1cc(OS(C)(=O)=O)cc(-c2cccc(C3(c4ccnc(Cl)c4)N=C(N)N(C)C3=O)c2)c1 (stereo not shown) [Example 312, hydrochloride]           26
1  CCCS(=O)(=O)Oc1cccc(C2(c3ccc(F)c(-c4cccnc4)c3)N=C(N)N(C)C2=O)c1 (stereo not shown) [Example 97]          236
2  CCCS(=O)(=O)Oc1cccc(C2(c3ccc(F)c(-c4cncnc4)c3)N=C(N)N(C)C2=O)c1 (stereo not shown) [Example 102]          321
3  CN1C(=O)C(c2ccc(OS(C)(=O)=O)cc2)(c2ccnc(-c3cccnc3F)c2)N=C1N (stereo not shown) [Example 29]          387

(1) CN1C(=O)C(c2cccc(OS(=O)(=O)c3c(Cl)nc4sccn34)c2)(c2ccc(F)c(Br)c2)N=C1N (stereo not shown) [Example 233]
(2) CN1C(=O)C(c2ccc(OS(=O)(=O)c3ccc4c(c3)oc(=O)n4C)cc2)(c2ccc(F)c(-c3cccnc3)c2)N=C1N (stereo not shown) [Example 284]
QUERY: # min-compare on IC50 between 1 and 2 Indicate your choice by writing its label.
RESULT: 2
